Target: human NPY Y5 receptor (Homo sapiens)
Construct: expressed in transfected cells
Sequence (Q15761 1-445): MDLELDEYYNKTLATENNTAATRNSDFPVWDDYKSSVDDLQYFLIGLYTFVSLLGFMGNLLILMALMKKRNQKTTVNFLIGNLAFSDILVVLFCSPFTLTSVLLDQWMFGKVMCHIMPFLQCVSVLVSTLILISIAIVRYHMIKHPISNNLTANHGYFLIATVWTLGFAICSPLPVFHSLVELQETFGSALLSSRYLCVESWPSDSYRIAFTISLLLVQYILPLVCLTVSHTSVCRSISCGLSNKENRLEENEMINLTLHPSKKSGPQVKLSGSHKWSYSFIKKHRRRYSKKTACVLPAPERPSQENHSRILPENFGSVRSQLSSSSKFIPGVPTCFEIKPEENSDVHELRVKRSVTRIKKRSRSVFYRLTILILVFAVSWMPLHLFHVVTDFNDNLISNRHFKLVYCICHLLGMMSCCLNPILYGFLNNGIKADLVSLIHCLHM
Assay: Affinity for NPY Y5 receptor ([125I] peptide YY binding, CHO cell membranes)
Details: inhibition of specific [125I] peptide YY binding, membranes of CHO cells expressing NPY Y5 receptor
Endpoint name: pIC50
One number for each entry, as −log10 of the molar value.

The cases that follow already have their pIC50 on record.
CC(C)(C)S(=O)(=O)NC1CCC(C(=O)Nc2ccc3ncccc3c2)CC1 (stereo not shown) : 9.32
CC(C)(C)S(=O)(=O)NC1CCC(C(=O)Nc2ccc(N3CCc4ccccc4C3)cc2)CC1 (stereo not shown) : 9.16
CC(C)(C)S(=O)(=O)NC1CCC(C(=O)Nc2ccc(Oc3ccccc3)cc2)CC1 (stereo not shown) : 9.52

Continue with the next compound.
Lookup: pIC50 / human NPY Y5 receptor (Homo sapiens) / CC(C)S(=O)(=O)NC1CCC(C(=O)Nc2ccc(N3C[C@@H](C)O[C@@H](C)C3)cc2)CC1 (stereo partly shown)
8.62
